- Tested on: NCI/ADR-RES
- assayProtocol: NCI tumour cell line growth inhibition, 48 h
The source made the active and inactive calls. No stated cut-off is given here; in the data, active = GI50 up to about 1.1 µM and inactive = higher.
Known GI50 of a selection of compounds

Sample answers from the record:
>>> recordedresult("COc1cccc(/C=C/c2ccc(S(N)(=O)=O)cc2)c1")
"23.1 µM (inactive)"
>>> recordedresult("N#CC(CCN1CCC(Nc2ccccc2)(c2nnnn2C2CCCCC2)CC1)(c1ccccc1)c1ccccc1")
"> 100 µM (inactive)"

Returns the measured GI50 for the input compound. Input: CC1CCC2(CC1)N=C1CCC(C)CC1C1(CCC(C)CC1)N2 (stereo not given)
> 100 µM (inactive)

How about this compound: COC(=O)C(NC(=O)OC(C)(C)C)P(=O)(OC)OC (stereo not given)
> 100 µM (inactive)

Param item: "O=C(Nc1ccc(Cl)cc1)NS(=O)(=O)c1coc2cc(F)ccc2c1=O"
> 100 µM (inactive)

Another compound to check: COC12OC3(C4OC41)C(C(=O)O[C@H]3CO[Si](C)(C)C(C)(C)C)C2C(=O)Oc1ccccc1 (stereo not given in full)
> 100 µM (inactive)

Another compound to look at: "COc1ccc(-c2c(-c3ccccc3)c(C)c3ccccn23)cc1"
> 100 µM (inactive)

* * *

- System: COLO 205
- assayProtocol: NCI tumour cell line growth inhibition, 48 h
Active and inactive are the calls of the source. Rule as the data show it: active = GI50 up to about 1.1 µM and inactive = higher.
Hi there, use one of these labels in your reply, thanks! True for active, False for inactive

See these solved cases before continuing.
>>> labelvalue("CCOC(CI)O[C@@H]1C=C[C@H](OC(C)=O)C1 (some centres not stated)")
"False"
>>> labelvalue("CS(=O)(=O)c1nc(-c2cc3c(c(S(C)(=O)=O)n2)CCC3)cc2c1CCC2")
"False"
>>> labelvalue("COC1CC(C)(NC(=O)C(F)(F)F)C2OC(c3ccccc3)OCC2O1 (configuration not stated)")
"False"
>>> labelvalue("Cc1ccc2nc(N/N=C/c3sccc3C)cc(C)c2c1")
"False"
>>> labelvalue("O=C(CNc1c(Cl)cccc1Cl)NC1C=Cc2ccc(S(=O)(=O)Nc3c(Cl)cccc3Cl)cc2C1=O (configuration not stated)")
"False"

Could you kindly confirm the outcome this assay logged for COC(=O)C1(Cc2ccc3c(c2)CCC3)Cc2ccc3c(c2C1)CCC3 (configuration not stated) ?
False

Next: "COc1cc(C2(C)SCCCS2)c(I)c(OC)c1OC"
False

* * *

- System: MDA-N
- assayProtocol: NCI tumour cell line growth inhibition, 48 h
Activity calls are given as the source filed them. Cut-off read from the data, not from the text of the source: active = GI50 up to about 1.1 µM and inactive = higher.
Recorded GI50 for the following compounds

Would you mind telling me what GI50 value was observed for "CCOC(=O)Cn1c(C)nc2nn(Cc3ccccc3)cc2c1=O" ?
> 100 µM (inactive)

"NC(C(=O)OC(=O)c1ccccc1)C(=O)OC(=O)c1ccccc1" , same question.
> 10 µM (inactive)

Same lookup for "C[N+]1(C)CN(c2ccccc2)C2(CCN(CCCC(=O)c3cccs3)CC2)C1=O" , please.
> 100 µM (inactive)

Next compound: "Cc1n[nH]c(=O)n1-n1cccc1"
> 100 µM (inactive)

Could you do the same for CC[C@]12C=CCN3CCC4(c5cc(/N=N/c6ccccc6)c(OC)cc5N(C)[C@H]4[C@@](O)(C(=O)OC)[C@@H]1OC(C)=O)[C@@H]32 (stereo not given in full) , please?
18.4 µM (inactive)

Next: "O=c1c2cnccc2cc2c3ccccc3ccn12"
> 100 µM (inactive)

And for "N#C/C(C(=S)NCc1ccccc1)=C(/N)N1CCCC1" ?
> 100 µM (inactive)
